target: OGA (Homo sapiens, UniProt O60502)
Construct: HEK293 cells inducible for P301L mutant human Tau (isoform 2N4R) were established at Janssen; endogenous in cells
method: OGA cellular assay: immunocytochemical detection of O-GlcNAcylated proteins in HEK293 cells inducible for P301L mutant human Tau
Readings of pEC50 for the listed molecules
As a rule, pEC50 stands for the negative log10 of the concentration, concentration in M.

pEC50 lookup needed for CC(=O)Nc1ncc(CN2CCCC(c3cnc4cc[nH]c4c3)C2)s1 (centres unmarked) [Product 106] , thanks.
6.55

pEC50 lookup needed for CC(=O)Nc1ncc(CN2CCC[C@H](c3ccnc4ncnn34)C2)s1 , thanks.
7.41

pEC50 lookup needed for CC(=O)Nc1ncc(CN2CCCC(Cc3cncc4nccn34)C2)s1 (centres unmarked) , thanks.
7.87

###

reported-property: melting point (°C)
Entry rule: numbers only, all in °C.

compound	unit-annotation	melting point
CC(=O)Nc1ncc(CN2CCCC(c3cc(C(F)F)nc4nccn34)C2)s1 (stereo not shown)	°C	226.06
CC(=O)Nc1ncc(CN2CCC(Cc3cnc4cc[nH]c4c3)C2)s1 (stereo not shown)	°C	190.79
Cc1cc(C2CN(CC(=O)N3CCCC3)CCO2)n2ncnc2n1 (stereo not shown)	°C	127.35

melting point lookup needed for CC(=O)Nc1ncc(CN2CCCC(c3cc(C)nc4ncnn34)C2)s1 (racemic) , thanks.
246.95

###

target: OGA (Homo sapiens)
Construct: HEK293 cells inducible for P301L mutant human Tau (isoform 2N4R) were established at Janssen; endogenous in cells; host or cells: HEK293 cells inducible for P301L mutant human Tau (2N4R)
method: OGA cellular assay: immunocytochemical detection of O-GlcNAcylated proteins in HEK293 cells inducible for P301L mutant human Tau
Format: cell-based
reported-property: EC50 (nM)
Entry rule: numbers only, all in nM.

molecule	unit-annotation	EC50
CC(=O)Nc1ncc(CN2CCCC(c3cc(C)nc4ncnn34)C2)s1 (racemic)	nM	27.5
CC(=O)Nc1ncc(CN2CCCC(c3cc4ccn(C)c4nc3C)C2)s1 (centres unmarked)	nM	9.33

Moving on to another molecule below.
EC50 lookup needed for CC(=O)Nc1ncc(CN2CCC[C@@H](c3cc(C(F)F)n4ncnc4n3)C2)s1 , thanks.
457

###

target: recombinant human Meningioma Expressed Antigen 5 (MGEA5), also referred to as O-GlcNAcase (OGA) (Homo sapiens)
Construct: Full length OGA enzyme was purchased at OriGene (cat # TP322411); purchased OriGene TP322411
method: OGA biochemical assay: inhibition of FM-GlcNAc hydrolysis, fluorescence; protocol A (10 nM OGA, 1 h) or protocol B (2 nM OGA, 6 h)
run-conditions: Enzymatic protocol B (2 nM OGA, 6 h)
Readings of Emax for the listed compounds
Entry rule: numbers only, all in %.

compound	Emax [%]
CC(=O)Nc1ncc(CN2CCCC(Cc3cc(C)nc4ncnn34)C2)s1 (stereo not drawn)	99.8
CC(=O)Nc1ncc(CN2CCCC(c3ccc4ccn(C)c4n3)C2)s1 (stereo not drawn)	101
CC(c1ccc2c(c1)OCO2)N1CCC(Cc2cccc3nccn23)C1 (stereo not drawn)	95.7
CC(=O)Nc1ncc(CN2CC[C@H](C)[C@@H](c3cc(C(F)F)nc4ncnn34)C2)s1	94.5
CC(=O)Nc1ncc(CN2CCCC(c3cnc4cc[nH]c4c3)C2)s1 (racemic) [Product 26]	123
CC(=O)Nc1ncc(CN2CCC(Cc3cccc4nccn34)C2)s1 (stereo not drawn)	99.6
CC(=O)Nc1ncc(CN2CCCC(Cc3cncc4nccn34)C2)s1 (stereo not drawn)	100
Cc1cc([C@H]2CN([C@H](C)c3ccc4c(c3)OCO4)CCN2)n2ncnc2n1	25.8
CC(=O)Nc1ncc(CN2CCOC(c3cc(C(F)(F)F)nc4ncnn34)C2)s1 (stereo not drawn)	79.6
CC(=O)Nc1ncc(CN2CCCC(Cc3c(F)c(C)nc4ncnn34)C2)s1 (stereo not drawn)	102

Emax lookup needed for CC(=O)Nc1ncc(CN2CC[C@H](Cc3cccc4nccn34)C2)s1 , thanks.
101

Emax lookup needed for CC(=O)Nc1ncc(CN2CCCC(c3cnc4cc[nH]c4c3)C2)s1 (stereo not drawn) [Product 106] , thanks.
101
